These data points were gathered from ChEMBL document CHEMBL1938263.

# System: Mus musculus
# Assay protocol: Analgesic activity in mouse assessed as latency time of paw licking as nociceptive response at 250 mg/kg, po after 1 hr by hot plate test (reference value: 14.3 +/- 0.99 sec)
# Type: functional
Reported property: Time (s)
Just the number please, in s, no unit attached.

Exercise: Find the measured Time of Cc1cccc(Nc2ccccc2C(=O)Oc2ccc(/N=C/c3ccc(N(C)C)cc3)cc2)c1C and report it.
Key: 24.4

Exercise: Find the measured Time of CC(C)Cc1ccc(C(C)C(=O)O)cc1 (racemic) [IBUPROFEN] and report it.
Key: 16.1

Exercise: Find the measured Time of COc1ccc(/C=N/c2ccc(OC(=O)c3ccccc3Nc3cccc(C)c3C)cc2)cc1 and report it.
Key: 25.08

Exercise: Find the measured Time of Cc1cccc(Nc2ccccc2C(=O)Oc2ccc(/N=C/c3ccc(Br)cc3)cc2)c1C and report it.
Key: 21.22

---

# Tested on: Mus musculus
# Assay protocol: Analgesic activity in mouse assessed as latency time of paw licking as nociceptive response at 250 mg/kg, po after 0.5 hrs by hot plate test (reference value: 11.16 +/- 1.66 sec)
# Format: functional
Note to self: use Fulfilled only for Time readings below 20 s; a reading exactly at 20 s still gets Not fulfilled.

Exercise: In the record for CC(C)Cc1ccc(C(C)C(=O)O)cc1 (racemic) [IBUPROFEN] , is Time less than 20 s?
Key: Fulfilled

Exercise: In the record for COc1ccc(/C=N/c2ccc(OC(=O)c3ccccc3Nc3cccc(C)c3C)cc2)cc1 , is Time less than 20 s?
Key: Not fulfilled

Exercise: In the record for CC(C)Cc1ccc(C(C)C(=O)Oc2ccc(/N=C/c3ccc([N+](=O)[O-])cc3)cc2)cc1 (centres undefined) , is Time less than 20 s?
Key: Not fulfilled

Exercise: In the record for Cc1cccc(Nc2ccccc2C(=O)Oc2ccc(/N=C/c3ccc([N+](=O)[O-])cc3)cc2)c1C , is Time less than 20 s?
Key: Fulfilled

Exercise: In the record for CC(C)Cc1ccc(C(C)C(=O)Oc2ccc(/N=C/c3ccc(N(C)C)cc3)cc2)cc1 (centres undefined) , is Time less than 20 s?
Key: Not fulfilled

Exercise: In the record for Cc1cccc(Nc2ccccc2C(=O)Oc2ccc(/N=C/c3ccc(Br)cc3)cc2)c1C , is Time less than 20 s?
Key: Not fulfilled

Exercise: In the record for Cc1cccc(Nc2ccccc2C(=O)Oc2ccc(/N=C/c3ccc(N(C)C)cc3)cc2)c1C , is Time less than 20 s?
Key: Not fulfilled

---

# Tested on: Mus musculus
# Assay protocol: Analgesic activity in mouse assessed as latency time of paw licking as nociceptive response at 250 mg/kg, po after 1 hr by hot plate test (reference value: 14.3 +/- 0.99 sec)
# Format: functional
Reported property: Time (s)
Just the number please, in s, no unit attached.

Exercise: Enter measured Time, system Mus musculus, for the compound shown: COc1ccc(/C=N/c2ccc(OC(=O)C(C)c3ccc(CC(C)C)cc3)cc2)cc1 (stereo not given)
Key: 35.14

Exercise: Enter measured Time, system Mus musculus, for the compound shown: CC(C)Cc1ccc(C(C)C(=O)Oc2ccc(/N=C/c3ccc(Br)cc3)cc2)cc1 (stereo not given)
Key: 33.44

Exercise: Enter measured Time, system Mus musculus, for the compound shown: Cc1cccc(Nc2ccccc2C(=O)Oc2ccc(/N=C/c3ccc([N+](=O)[O-])cc3)cc2)c1C
Key: 25.98

Exercise: Enter measured Time, system Mus musculus, for the compound shown: CC(C)Cc1ccc(C(C)C(=O)Oc2ccc(/N=C/c3ccc([N+](=O)[O-])cc3)cc2)cc1 (stereo not given)
Key: 34.62

Exercise: Enter measured Time, system Mus musculus, for the compound shown: CC(C)Cc1ccc(C(C)C(=O)Oc2ccc(/N=C/c3ccc(N(C)C)cc3)cc2)cc1 (stereo not given)
Key: 32.14
